Reference source: patent US20230117034A1

Target: CDK12 (nuclear staining in CAL-120 cells) (Homo sapiens, UniProt Q9NYV4)
Construct: endogenous in cells; host or cells: CAL-120 human breast cancer cells (DSMZ ACC 459)
Sequence (Q9NYV4 whole entry): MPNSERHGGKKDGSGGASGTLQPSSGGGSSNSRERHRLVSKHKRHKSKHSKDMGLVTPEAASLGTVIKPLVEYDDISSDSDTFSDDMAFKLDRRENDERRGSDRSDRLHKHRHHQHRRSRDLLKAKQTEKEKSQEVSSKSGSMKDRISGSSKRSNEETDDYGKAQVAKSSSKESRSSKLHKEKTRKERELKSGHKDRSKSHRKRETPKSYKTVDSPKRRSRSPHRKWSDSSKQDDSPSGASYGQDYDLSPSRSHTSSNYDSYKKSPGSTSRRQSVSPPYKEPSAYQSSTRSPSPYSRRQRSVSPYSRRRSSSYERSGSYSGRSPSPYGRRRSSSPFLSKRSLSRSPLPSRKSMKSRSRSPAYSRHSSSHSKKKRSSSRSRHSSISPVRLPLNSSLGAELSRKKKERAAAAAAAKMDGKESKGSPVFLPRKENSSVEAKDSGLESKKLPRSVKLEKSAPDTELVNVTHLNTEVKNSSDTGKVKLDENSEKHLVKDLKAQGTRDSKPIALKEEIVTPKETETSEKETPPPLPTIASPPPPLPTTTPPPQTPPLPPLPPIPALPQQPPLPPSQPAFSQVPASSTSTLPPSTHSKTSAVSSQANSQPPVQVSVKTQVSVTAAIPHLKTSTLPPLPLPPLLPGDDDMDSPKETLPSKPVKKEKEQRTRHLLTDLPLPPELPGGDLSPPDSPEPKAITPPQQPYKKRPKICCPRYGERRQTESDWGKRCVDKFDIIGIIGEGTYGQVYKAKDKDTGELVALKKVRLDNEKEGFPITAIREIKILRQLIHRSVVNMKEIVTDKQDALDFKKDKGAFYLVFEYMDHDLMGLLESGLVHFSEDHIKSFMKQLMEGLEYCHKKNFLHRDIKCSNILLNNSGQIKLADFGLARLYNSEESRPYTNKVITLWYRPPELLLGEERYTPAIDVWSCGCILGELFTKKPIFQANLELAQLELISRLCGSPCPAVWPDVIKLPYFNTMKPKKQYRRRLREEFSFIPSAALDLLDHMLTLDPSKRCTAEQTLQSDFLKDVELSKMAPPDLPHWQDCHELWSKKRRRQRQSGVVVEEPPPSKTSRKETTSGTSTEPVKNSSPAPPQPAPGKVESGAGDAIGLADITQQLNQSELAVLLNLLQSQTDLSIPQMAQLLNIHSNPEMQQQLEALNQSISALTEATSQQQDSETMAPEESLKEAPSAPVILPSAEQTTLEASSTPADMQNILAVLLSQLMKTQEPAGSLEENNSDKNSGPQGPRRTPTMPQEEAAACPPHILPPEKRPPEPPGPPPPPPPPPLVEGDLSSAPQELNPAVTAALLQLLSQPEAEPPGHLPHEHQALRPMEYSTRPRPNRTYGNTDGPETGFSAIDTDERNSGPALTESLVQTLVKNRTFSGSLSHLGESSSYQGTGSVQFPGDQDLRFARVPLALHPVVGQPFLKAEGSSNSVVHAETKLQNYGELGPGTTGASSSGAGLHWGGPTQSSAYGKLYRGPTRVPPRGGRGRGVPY
Sequence (O75909 whole entry partner): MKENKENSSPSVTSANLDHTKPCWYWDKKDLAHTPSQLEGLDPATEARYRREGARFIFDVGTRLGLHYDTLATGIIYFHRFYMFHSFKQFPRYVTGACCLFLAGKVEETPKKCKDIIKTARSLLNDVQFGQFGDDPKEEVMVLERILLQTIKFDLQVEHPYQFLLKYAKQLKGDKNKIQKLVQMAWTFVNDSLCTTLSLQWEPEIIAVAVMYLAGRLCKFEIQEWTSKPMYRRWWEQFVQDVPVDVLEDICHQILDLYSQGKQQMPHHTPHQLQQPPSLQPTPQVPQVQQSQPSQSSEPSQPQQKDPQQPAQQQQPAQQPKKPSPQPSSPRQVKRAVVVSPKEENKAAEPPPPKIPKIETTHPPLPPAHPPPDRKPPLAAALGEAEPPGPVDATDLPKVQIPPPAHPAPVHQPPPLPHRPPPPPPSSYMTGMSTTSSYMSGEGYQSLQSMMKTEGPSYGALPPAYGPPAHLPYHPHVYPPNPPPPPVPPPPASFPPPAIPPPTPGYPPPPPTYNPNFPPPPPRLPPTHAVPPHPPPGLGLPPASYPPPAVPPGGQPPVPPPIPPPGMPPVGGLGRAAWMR
Assay: CDK12 nuclear protein level: immunofluorescence/high content analysis (CAL-120)
Assay type: cell-based
Conditions: CAL-120 cells, 24 h, immunofluorescence; 50% reduction of nuclear CDK12 staining intensity; median; read-out: CDK12 degradation IF, DC50- [mol/l] (median)
Procedure: In the context of the present invention, the term “DC50 CDK12” refers to the DC50 values obtained according to the assay described in this section (7) herein below, i.e. the DC50 values for the degradation of CDK12. Plates are then incubated for 24 h at 37° C. in an humidified incubator and fixed with 4% PFA for 10 min. […] Nuclear and cytoplasmic intensity as well as the nuclear/cytoplasmic intensity ratio is determined by automated image analysis using custom generated scripts (MetaXpress). […]
parameter measured: DC50

INSERT INTO measurements (compound, parameter_measured, observed_value) VALUES
  ('Cc1[nH]c(CNc2nc(N3CCOCC3)nc3c(Br)cnn23)nc1-c1ccccc1', 'DC50', '128 nM'),
  ('Clc1ccc2[nH]c(CNc3nc(N4CCOCC4)nc4c(Br)cnn34)nc2c1', 'DC50', '0.471 nM'),
  ('Fc1cccc(-c2nnc(CNc3nc(N4CCNCC4)nc4c(Br)cnn34)[nH]2)c1', 'DC50', '12.7 nM'),
  ('c1ccc2[nH]c(CNc3nc(N4CCOCC4)nc4c(C5CCCC5)cnn34)nc2c1', 'DC50', '101 nM'),
  ('CN[C@H]1CCN(c2nc(NCc3nc4ccccc4[nH]3)n3ncc(Br)c3n2)C1', 'DC50', '1.17 nM'),
  ('COc1ccccc1-c1nnc(CNc2nc(N3CCN(C)CC3)nc3c(C4CC4(F)F)cnn23)[nH]1 (centres unmarked)', 'DC50', '25.3 nM'),
  ('Fc1c(Cl)ccc2[nH]c(CNc3nc(N4CC5CCC(C4)N5)nc4c(Br)cnn34)nc12', 'DC50', '2.32 nM'),
  ('Clc1cc2nc(CNc3nc(N4CCOCC4)nc4c(-c5cscn5)cnn34)[nH]c2cc1Cl', 'DC50', '38.1 nM');
